Property: Retention_time; scope: individual compounds
# ASSAY_NOTES: Retention time of the compound by RP-HPLC analysis
# Assay type: physicochemical
Peptide text beside a SMILES is read from it.
READOUT: Retention_time (min)

[[record]]
compound = "CC(C)C[C@@H]1NC(=O)[C@H](CCCN)NC(=O)[C@H](C(C)C)NC(=O)[C@@H]2CCCN2C(=O)[C@@H](Cc2ccccc2)NC(=O)[C@H](CC(C)C)NC(=O)[C@H](CCCN)NC(=O)[C@H](C(C)C)NC(=O)[C@@H]2CCCN2C(=O)[C@@H](Cc2ccccc2)NC1=O [GRAMICIDIN S] (HELM PEPTIDE1{L.[dF].P.V.[Orn].L.[dF].P.V.[Orn]}$PEPTIDE1,PEPTIDE1,1:R1-10:R2$$$V2.0)"
readout = "Retention_time"
value_measured = 18.57

[[record]]
compound = "CC(C)C[C@@H]1NC(=O)[C@H](CCCN)NC(=O)[C@H](C(C)C)NC(=O)[C@@H]2CCCN2C(=O)[C@@H](Cc2ccccc2)NC(=O)[C@H](CC(C)C)NC(=O)[C@H](CCCN)NC(=O)[C@H](C(C)C)NC(=O)[C@@H]2CCCN2C(=O)[C@@H](CCCNC(=N)N)NC1=O (HELM PEPTIDE1{L.[dF].P.V.[Orn].L.[dR].P.V.[Orn]}$PEPTIDE1,PEPTIDE1,1:R1-10:R2$$$V2.0)"
readout = "Retention_time"
value_measured = 16.22

[[record]]
compound = "CC(C)C[C@@H]1NC(=O)[C@H](CCCN)NC(=O)[C@H](C(C)C)NC(=O)[C@@H]2CCCN2C(=O)[C@@H](Cc2ccccc2)NC(=O)[C@H](CC(C)C)NC(=O)[C@H](CCCN)NC(=O)[C@H](C(C)C)NC(=O)[C@H](Cc2c[nH]c3ccccc23)NC(=O)[C@@H](Cc2c[nH]c3ccccc23)NC1=O (HELM PEPTIDE1{L.[dF].P.V.[Orn].L.[dW].W.V.[Orn]}$PEPTIDE1,PEPTIDE1,1:R1-10:R2$$$V2.0)"
readout = "Retention_time"
value_measured = 18.78


---

# ASSAY_NOTES: Therapeutic index, ratio of HC50 for human RBC to MIC for antibacterial activity against methicillin-sensitive Staphylococcus aureus ATCC 29213 clinical isolate
# Type: toxicity, cell-based
# EXPERIMENTAL_SETUP: pooled result: one value given for 2 cell lines, strains, targets or settings, read-out: TI
Square brackets hold non-standard residues; d marks the D form. Peptide text beside a SMILES is read from it. Tle = CC(C)(C)[C@H](N)C(=O)O; Orn = NCCC[C@H](N)C(=O)O
READOUT: selectivity ratio

[[record]]
compound = "CC(C)C[C@@H]1NC(=O)[C@H](CCCN)NC(=O)[C@H](C(C)(C)C)NC(=O)[C@@H]2CCCN2C(=O)[C@@H](Cc2ccccc2)NC(=O)[C@H](CC(C)C)NC(=O)[C@H](CCCN)NC(=O)[C@H](C(C)C)NC(=O)[C@@H]2CCCN2C(=O)[C@@H](CCCNC(=N)N)NC1=O"
readout = "selectivity ratio"
value_measured = 10

[[record]]
compound = "CC(C)C[C@@H]1NC(=O)[C@H](CCCN)NC(=O)[C@H](C(C)C)NC(=O)[C@H](Cc2c[nH]c3ccccc23)NC(=O)[C@@H](Cc2c[nH]c3ccccc23)NC(=O)[C@H](CC(C)C)NC(=O)[C@H](CCCN)NC(=O)[C@H](C(C)C)NC(=O)[C@H](Cc2c[nH]c3ccccc23)NC(=O)[C@@H](Cc2ccccc2)NC1=O (HELM PEPTIDE1{L.[dF].W.V.[Orn].L.[dW].W.V.[Orn]}$PEPTIDE1,PEPTIDE1,1:R1-10:R2$$$V2.0)"
readout = "selectivity ratio"
value_measured = 0.58

[[record]]
compound = "CC(C)C[C@@H]1NC(=O)[C@H](CCCN)NC(=O)[C@H](C(C)C)NC(=O)[C@@H]2CCCN2C(=O)[C@@H](CCCNC(=N)N)NC(=O)[C@H](CC(C)C)NC(=O)[C@H](CCCN)NC(=O)[C@H](C(C)C)NC(=O)[C@H](Cc2c[nH]c3ccccc23)NC(=O)[C@@H](Cc2ccccc2)NC1=O (HELM PEPTIDE1{L.[dF].W.V.[Orn].L.[dR].P.V.[Orn]}$PEPTIDE1,PEPTIDE1,1:R1-10:R2$$$V2.0)"
readout = "selectivity ratio"
value_measured = 6.38

[[record]]
compound = "CC(C)(C)[C@@H]1NC(=O)[C@H](CCCN)NC(=O)[C@H](C(C)(C)C)NC(=O)[C@@H]2CCCN2C(=O)[C@@H](Cc2ccccc2)NC(=O)[C@H](C(C)(C)C)NC(=O)[C@H](CCCN)NC(=O)[C@H](C(C)(C)C)NC(=O)[C@@H]2CCCN2C(=O)[C@@H](Cc2ccccc2)NC1=O (cyclo([Orn][Tle][dF]P[Tle][Orn][Tle][dF]P[Tle]))"
readout = "selectivity ratio"
value_measured = 2.95

[[record]]
compound = "CC(C)C[C@@H]1NC(=O)[C@H](CCCN)NC(=O)[C@H](C(C)C)NC(=O)[C@@H]2CCCN2C(=O)[C@@H](Cc2ccccc2)NC(=O)[C@H](CC(C)C)NC(=O)[C@H](CCCN)NC(=O)[C@H](C(C)C)NC(=O)[C@H](Cc2c[nH]c3ccccc23)NC(=O)[C@@H](CCCNC(=N)N)NC1=O (HELM PEPTIDE1{L.[dF].P.V.[Orn].L.[dR].W.V.[Orn]}$PEPTIDE1,PEPTIDE1,1:R1-10:R2$$$V2.0)"
readout = "selectivity ratio"
value_measured = 6.56

[[record]]
compound = "CC(C)C[C@@H]1NC(=O)[C@H](CCCN)NC(=O)[C@H](C(C)(C)C)NC(=O)[C@@H]2CCCN2C(=O)[C@@H](Cc2ccccc2)NC(=O)[C@H](CC(C)C)NC(=O)[C@H](CCCN)NC(=O)[C@H](C(C)C)NC(=O)[C@@H]2CCCN2C(=O)[C@@H](Cc2ccccc2)NC1=O (HELM PEPTIDE1{L.[dF].P.[CC(C)(C)[C@H](N[*:1])C(=O)[*:2]].[Orn].L.[dF].P.V.[Orn]}$PEPTIDE1,PEPTIDE1,1:R1-10:R2$$$V2.0)"
readout = "selectivity ratio"
value_measured = 1.87

